Biological target: human SMS2 (Homo sapiens)
Sequence (Q8NHU3 whole entry): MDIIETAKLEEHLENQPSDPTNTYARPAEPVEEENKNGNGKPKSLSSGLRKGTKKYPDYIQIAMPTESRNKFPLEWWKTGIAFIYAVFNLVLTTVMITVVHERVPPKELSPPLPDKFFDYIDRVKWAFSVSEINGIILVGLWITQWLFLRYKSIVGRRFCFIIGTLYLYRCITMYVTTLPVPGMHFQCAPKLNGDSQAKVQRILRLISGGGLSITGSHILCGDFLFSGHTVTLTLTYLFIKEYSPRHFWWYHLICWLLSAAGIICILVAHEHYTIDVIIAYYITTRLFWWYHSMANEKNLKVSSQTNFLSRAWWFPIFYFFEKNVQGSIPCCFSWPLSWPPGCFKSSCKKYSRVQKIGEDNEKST
Experiment: purified SMS enzyme inhibitory assay in vitro
Assay type: biochemical
Details: read-out: SMS2 Inhibition @ 1 μmol/L (%)
assay.endpoint: inhibition at 1 µM (%)

Solved cases (9 shown):
# compound, number
rows = [
    ("CCCCCCOc1ccccc1COc1ccsc1C(=O)Nc1cccnc1 [14j]", 88),
    ("O=C(Nc1cccnc1)c1sccc1OCc1ccccc1Cl [14a]", 64),
    ("CCCCCCCCCCCCOc1ccccc1COc1ccsc1C(=O)Nc1cccnc1 [14p]", 93),
    ("O=C(Nc1cccnc1)c1sccc1OCc1ccc(Cl)cc1 [14c]", 26),
    ("O=C(Nc1cccnc1F)c1sccc1OCc1ccccc1 [7a]", 41),
    ("Cc1cc(OCc2ccccc2)c(C(=O)Nc2cccnc2)s1 [5c]", 34),
    ("O=C(Nc1cccnc1)c1sccc1OCc1c2ccccc2cc2ccccc12 [9c]", 79),
    ("CCCCCCCCCCOc1ccccc1COc1ccsc1C(=O)Nc1cccnc1 [14n]", 92),
    ("O=C(Nc1cccnc1)c1sccc1OCc1cc(F)ccc1Cl [14d]", 79),
]

a: CCCOc1ccccc1COc1ccsc1C(=O)Nc1cccnc1 [14g]
b: O=C(Nc1cccnc1)c1sccc1OCc1ccc2ccccc2c1 [9b]
c: O=C(Nc1cccnn1)c1sccc1OCc1ccccc1 [7i]
d: CCCCCCCCOc1ccsc1C(=O)Nc1cccnc1 [9e]
## Task # ascending order, key=inhibition at 1 µM Please write the labels in the order that was asked for.
## Result d, c, b, a
(d: -11%, c: 25%, b: 36%, a: 78%)
